Biological target: T1, human chemokine (C-C motif) receptor 8 (CCR8) (human, UniProt P51685 1-355)
T1 construct: On human peripheral blood lymphocytes / PBMC (native) or on human CCR8 GFP-transfected Ba/F3 cells; also called hCCR8; human CCR8
T1 sequence (P51685 whole entry): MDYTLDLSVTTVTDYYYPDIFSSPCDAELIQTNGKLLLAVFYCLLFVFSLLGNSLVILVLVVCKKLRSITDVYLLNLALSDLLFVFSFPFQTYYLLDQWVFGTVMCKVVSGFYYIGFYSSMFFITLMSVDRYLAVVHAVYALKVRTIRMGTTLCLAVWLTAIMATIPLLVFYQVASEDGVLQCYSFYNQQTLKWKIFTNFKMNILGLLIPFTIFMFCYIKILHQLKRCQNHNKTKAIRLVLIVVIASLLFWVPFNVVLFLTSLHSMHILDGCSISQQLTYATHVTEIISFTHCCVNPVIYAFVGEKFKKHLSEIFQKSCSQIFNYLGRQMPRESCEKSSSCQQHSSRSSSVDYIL
Test: flow cytometry blocking, PBMC CCR8+ CD4+ cells; competitor PE-AB6 (its MFI is read)
Measure: MFI
Number only, no unit.

According to the records, this binder AB15 (antibody, V domains shown, Hybridoma monoclonal; also called antibody 15; clone 15) VH: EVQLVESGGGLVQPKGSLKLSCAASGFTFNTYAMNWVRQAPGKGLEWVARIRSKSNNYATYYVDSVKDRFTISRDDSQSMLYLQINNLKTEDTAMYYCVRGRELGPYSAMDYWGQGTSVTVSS VL: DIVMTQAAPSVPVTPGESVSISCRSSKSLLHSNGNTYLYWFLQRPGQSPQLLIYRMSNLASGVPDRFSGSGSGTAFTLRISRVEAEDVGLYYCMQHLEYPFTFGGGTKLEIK displays MFI of 1060

Data credit: patent US20240360228A1
